assay_notes: soluble on expression in E. coli; label from the status in PepcDB or PDB records
result_type: soluble on expression in E. coli

Here are 5 sequences together with their reported answers.
INSERT INTO measurements (seq_string, result_type, readout_value) VALUES
  ('MAHHHHHHMSEKKEYINPAGLRLDGRRPQESRRMTLEFGKVLGCDGCCTVMSGLATVCASVYGPREVTNRLESKYNECIITCEVAIAAFAGEKRRAPQRRSKLSEEMSAAVLEVARSVVLLSQYPNSQIHICVEVLRQDGSDKAACINAACLALVDACVAMRDIVYAQTVGLIHAVDVVDLTTEEMRSQCPTICIAVKGHDPSSIVWMESNCRVTSEVVSRLVTVAQKSSEGVFAAALRGPLEEHAAAILKLQGNLGNGD', 'soluble on expression in E. coli', 'not soluble'),
  ('MRLLTWDVKDTLLRLRHPLGEAYATKARAHGLEVEPSALEQGFRQAYRAQSHSFPNYGLSHGLTSRQWWLDVVLQTFHLAGVQDAQAVAPIAEQLYKDFSHPCTWQVLDGAEDTLRECRTRGLRLAVISNFDRRLEGILGGLGLREHFDFVLTSEAAGWPKPDPRIFQEALRLAHMEPVVAAHVGDNYLCDYQGPRAVGMHSFLVVGPQALDPVVRDSVPKEHILPSLAHLLPALDCLEGSAENLYFQSHHHHHHDYKDDDDK', 'soluble on expression in E. coli', 'soluble'),
  ('MGSDKIHHHHHHEEYFNAIRTNIQLSGVDIKVVGITSVKSNEGKSTTAASLAIAYARSGYKTVLVDADIRNSVMPGFFKPMTKITGLTDYLAGTTDLSQGLCDTDIPNLTVIESGKVSPNPTALLQSKSFENLLATLRRYYDYVIVDCPPLGLVIDAAIIAQKCDAMVAVVEAGNVKCSSLKKVKEQLEQTGTPFLGVILNKYDIATEKYGEYGNYGKKA', 'soluble on expression in E. coli', 'not soluble'),
  ('MAGNANSVDEEVTRILGGIYLGGIRPIIDHRPLGAEFNITHILSVIKFQVIPEYLIRKGYTLKNIPIDDDDVTDVLQYFDETNRFIDQCLFPNEVEYSPRLVDFKKKPQRGAVFAHCQAGLSRSVTFIVAYLMYRYGLSLSMAMHAVKRKKPSVEPNENFMEQLHLFEKMGGDFVDFDNPAYKQWKLKQSIKLDPSGSELVSNSGMFKDSESSQDLDKLTEAEKSKVTAVRCKKCRTKLALSTSFIAHDPPSKESSEGHFIKRAANSHRIIDIQESQANCSHFFIEPLKWMQPELQGKQELEGKFSCPGCSSKVGGYNWKGSRCSCGKWVIPAIHLQTSKVDQFPLQSTALPNMVNFESEKVNR', 'soluble on expression in E. coli', 'not soluble'),
  ('MTEPGERRRRTTSTATRERGVRDARDAARRAADALSELIRHHLEGVSAVCRGEDGGWIVNVDVLEVARIPDTTSLLATYEVELDPAGDLLQYRRIARYRRGAQDQLEHHHHHH', 'soluble on expression in E. coli', 'not soluble');

GET /values?readout=soluble on expression in E. coli&item= `MAGDPMVMLNTHVVECLQACGRCAAACDYCASSCLREGHGADMARCIALDLDCAAACRLCAAMMARESEFSTHMCTLCARICEVCGDECARHEPRHCQECATACHACASACRAMARPLEHHHHHH`
soluble

Record: `MANFQATIHSRPLSPEFMTQARRPASTIQAVLTNLREKISLQSILPGARLTEEELVDNYSIPRAMAREVLAVLEDRGIVRRIPNKGAVVAHVDMQWVYHYYDAREALDGMMVRLAARQTRPEDWADLVEQFGEPFQKALETGDVDRLISLIETFRNRLQTAANNPVLSDLAERIHERIRVVRQRVVLLPGRAETMVADYRAVLAALARSDAEEAEQLMGILNRNNRAAIQKYERYVV`
not soluble

Let us now turn to `MKGPYKHFMQKEIFEQPDSAFNTMRGRIDFENCVVTLGGLKSWLSTIRRCRRIIMIACGTSYHSCLATRSIFEELTEIPVSVELASDFLDRRSPVFRDDTCVFVSQSGETADSILALQYCLERGALTVGIVNSVGSSMSRQTHCGVHINAGPEIGVASTKAYTSQYIALVMFALSLSNDSISRKGRHEEIIKGLQKIPEQIKQVLKLENKIKDLCNSSLNDQKSLLLLGRGYQFATALEGALKIKEISYMHSEGVLAGELKHGILALVDEDLPIIAFATRDSLFPKVMSAIEQVTARDGRPIVICNEGDAIISNDKVHTTLEVPETVDCLQGLLNVIPLQLISYWLAVNRGIDVDFPRNLAKSVTVE`
soluble

Now consider `MTLTRGSFTYSSGEEYTGEWKEGRRHGKGELKFADGTCYKGHFENGLFHGSGVLVFPDGSRYEGEFAQGKFQGVGIFSRFDGMKFEGEFKSGRVEGHGLLTFPDGSHGAPRNEGMFENNKLLKREKCQAVVQRAKNSASTARGLSV` and answer again.
soluble

Entry `MHAITNSGWVEVITGSMFSGKTEELLRRLRRAEIAGQDVAAVTPAVDDRYGEATLGSHAGRSWAATVVEPTAEGVASIPTLLNGEQVVAIDEANFFPAELVDVCQELAADGRRVVLSGTDQTFRGEPFEPVPQLMAIAEYVDKMRAICMQCGEPATRNQRLIEGEPAHYDDPTVMVGAEETYEARCRNCHVVRRELEHHHHHH` please
not soluble

Try this sequence too: `GAADHVKGDGKLTSKKISVADYNEIKVDGVIDFNYEQSDDPSTVEVTVDQNLHPYVNIEVKDRVLTIAFKGAKVDHFTKFIVKTNSKWLAAAKVSGNANFMVNSPLTGDETVIKANANSLVQLKETVTVGKLDLNVSGSANMVVNHLEADKIECDIDGSGSITIKKGNAKEGDYSIVSSGDIHAFGLAVPQLSCKVTGNGLAEVHATDNLKANVVGKGNIRYKGPTAVQQRIIGKGTVEEVKE`
soluble

Can you handle `MSLDGIIPVVEKKDFLRWFLKEFTLKKRECSWLLNYLMSDDDLMENVHFVEEAERCPKALIMSTNDVHTVPFCFHKYQQVTMDAEKAFHDIRMNPEEAIYIQLHFSGAKHNPNYIAVLEDNPYVPENEDLIAKQKKLAEAFLERSVQSFEEKELLRRIDEALDARDKETFLTLSQQLQHLRQHSDEGHHHHHH` next?
soluble

Request: `MNNAHEENISSVTGFKSTSGSPAIGSSLPGRSGEGRSSSSSSGSTALLAVVNSTLKAIFSNTLDSIFHMVCTDSDKRLSSEFHCLQSMFNLQLFVNLGCPLS`
soluble

Entry `MERKISDEECPVRKSMQIFAGKWTLLIIFQINRRIIRYGELKRAIPGISEKMLIDELKFLCGKGLIKKKQYPEVPPRVEYSLTPLGEKVLPIIDEIAKFGMENL` please
soluble
